Tested on: HCC-2998 colon
Assay: NCI-60 one-dose screen, 48 h
Details: 10 µM unless noted
About 83,000 compounds went through this panel and 20% of them were active in at least one assay; those are over-represented in the sample as a whole. Calls of active or inactive are those of the source. Rule for the calls: active = growth percent below 10; inactive = the rest.
Outcomes: y for active, n for inactive

compound	category
CCN1C(=O)N(CC)C2C1NN=c1s/c(=C\c3ccco3)c(=O)n12 (stereo unspecified)	n
Cc1ccc(NC(=O)c2sc3nc4c(cc3c2N)C(=O)CCC4)cc1Cl	n
Cc1ccc(OC2=C(C#N)C(=N)N3C(=NN2)Sc2c(C)ccc(C)c23)cc1	n
O=C(O)c1cc2cc(OCc3ccccc3)ccc2[nH]1	n
O=C(CC(=O)c1cccc(Cl)c1)c1cccc(Cl)c1	n
CN1C(=O)N(C)C2C1NN=c1s/c(=C\c3ccc(C(F)(F)F)cc3)c(=O)n12 (stereo unspecified)	n
CCOC(=O)C(CCCCC(NC(C)=O)(C(=O)OCC)C(=O)OCC)(NC(C)=O)C(=O)OCC	n
CC(=O)O[C@H]1CC[C@]2(C)[C@H]3CC=C4[C@@H]5CC(C)(C)CC[C@]5(C(=O)OCC(COC(=O)C(Cl)Cl)(COC(=O)C(Cl)Cl)NC(=O)C(Cl)Cl)CC[C@@]4(C)[C@]3(C)CC[C@H]2C1(C)C	n
C=C1C(=O)O[C@H]2[C@H]1CC/C(COC(=O)NCc1ccc(Cn3c(=O)sn(CCCl)c3=O)cc1)=C\CC[C@@]1(C)O[C@@H]21	n
Cc1cc(O)ccc1Sc1ccccc1[N+](=O)[O-]	n
O=C(Nc1cccc(Cl)c1)Nc1ccccc1Cl	n
CCN(CC)CCCC(C)Nc1c(-c2ccccc2)cnc2cc(Cl)ccc12 (stereo unspecified)	n
CCS(=O)(=O)Nc1cccc(Nc2c3cccc(C)c3nc3c(C)cccc23)c1OC	y
CCN(CC)CCNC(=O)n1cc(-c2ccncc2)c(-c2cc(Cl)cc(OC)c2)n1	n
OCCN(CCO)c1ccc2ccccc2c1	n
O=C(C(=O)N1CCCC1)c1cn(CCCn2cc(C(=O)C(=O)N3CCCC3)c3cc(Br)ccc32)c2ccc(Br)cc12	n
CCn1c(Cc2ccccc2Nc2c(Cl)cccc2Cl)nnc1SCC(=O)Nc1cccc(OC)c1	n
Fc1ccc(-c2cnc3nonc3n2)c(F)c1	n
CCCCCCCCCCCCCCCCCC(=O)OCCCCCCCCCCCCC	n
COc1cc(NCC(O)CN(CC(C)C)CC(C)C)c2ncccc2c1 (stereo unspecified)	n
CC(C)(C)OC(=O)N1CCCN(CCNc2nccc(-c3c(-c4cccc(O)c4)nc4sccn34)n2)S1(=O)=O	n
CCCCc1nc(Cl)c(C2CC(c3ccc(S(N)(=O)=O)cc3)=NN2c2ccc(C#N)cc2)[nH]1 (stereo unspecified)	n
O=C1OC(/C=C/c2ccccc2)=NC/1=C/c1ccccc1[N+](=O)[O-]	n
Nc1c(C(=O)C[C@@H](N)CO)ccc2c1C(=O)CCO2	y
Cn1cnc([N+](=O)[O-])c1S(=O)(=O)Oc1cccc2ccccc12	n
COc1ccc(/C=C/c2nc(NCCCN(C)C)c3ccccc3n2)cc1	n
CCSCC1CC(O)(c2ccccc2)C(c2ccccc2)C(c2ccc(F)cc2)O1 (stereo unspecified)	y
O=C(/C=C/c1ccccc1Br)c1cccc(OCCCCOc2cccc(C(=O)/C=C/c3ccccc3Br)c2)c1	n
CCCCCCCCCCCCCC1=NC(C)(C)CN1C(C)C	y
CS(=O)(=O)c1ccc(C(=O)Nc2ccc(Cl)c(-c3ccccn3)c2)c(Cl)c1	y
CCN1C(=O)N(CC)C2C1NN=c1s/c(=C\c3ccc(Br)cc3)c(=O)n12 (stereo unspecified)	n
CC(=O)N1N=C(C2C(=O)N(C)C(=O)N(C)C2=O)CC1c1ccccc1C(=O)O (stereo unspecified)	n
Oc1ccccc1-c1nnc(COc2ccc(Cl)cc2Cl)o1	n
ClCc1c(Cl)c(Cl)c(Cl)c(CCl)c1Cl	n
CN(C)c1ccc(/C=C\c2cccc[n+]2C)cc1	n
COc1ccc2nc3ccccc3c(NCc3ccc(Cl)cc3)c2c1	y
